test system: U373 MG; assay: Concentration required for 50% growth inhibition of human U373 cancer cell lines after 3 days of culture; format: functional, cell-based, U-373MG ATCC; conditions: 72 h
MEASURE: IC50 (nM)
State just the number; it will be interpreted in nM.

| MOLECULE | IC50 / nM |
| --- | --- |
| C[C@@H]1C[C@@]2(NC(=O)CS2)C2(O)O[C@@H]3C[C@@]4(COC(=O)CCc5ccccc5)[C@@H](CC[C@@H]5[C@@H]4CC[C@]4(C)[C@@H](C6=CC(=O)OC6)CC[C@]54CO)C[C@H]3O[C@@H]2O1 (some centres undefined) | 4190 |
| C[C@@H]1C[C@@]2(N[C@@H](CC(=O)c3ccccc3)CS2)C2(O)O[C@@H]3C[C@@]4(CO)[C@@H](CC[C@@H]5[C@@H]4CC[C@]4(C)[C@@H](C6=CC(=O)OC6)CC[C@]54CO)C[C@H]3O[C@@H]2O1 (some centres undefined) | 38 |

// recorded IC50 for C[C@@H]1C[C@@]2(N[C@H](CC(O)c3ccccc3)CS2)C2(O)O[C@@H]3C[C@@]4(CO)[C@@H](CC[C@@H]5[C@@H]4CC[C@]4(C)[C@@H](C6=CC(=O)OC6)CC[C@]54CO)C[C@H]3O[C@@H]2O1 (some centres undefined) : 28

Entry C[C@@H]1C[C@@]2(N=C(N)CS2)C2(O[Si](C)(C)C)O[C@@H]3C[C@@]4(CO[Si](C)(C)C)[C@@H](CC[C@@H]5[C@@H]4CC[C@]4(C)[C@@H](C6=CC(=O)OC6)CC[C@]54CO)C[C@H]3O[C@@H]2O1 (some centres undefined) — recorded IC50 = 4620

---

tested on: U373 MG; experiment: Concentration required for 50% growth inhibition of human U373 cancer cell lines after 3 days of culture; format: functional, cell-based, U-373MG ATCC; details: 72 h
IC50 values by entry
Answer with a number only, understood to be in µM.

Please review the entries below; each comes with its answer.
| MOLECULE | MEASURE | VALUE_MEASURED |
| --- | --- | --- |
| CC(=O)OC[C@]12C[C@H]3OC4(O)[C@@H](O[C@H](C)C[C@@]45NC(=O)CS5)O[C@@H]3C[C@@H]1CC[C@@H]1[C@@H]2CC[C@]2(C)[C@@H](C3=CC(=O)OC3)CC[C@]12CO (stereo partly drawn) | IC50 | 4.6 |
| C[C@@H]1C[C@@]2(NC(=O)CS2)C2(O[Si](C)(C)C)O[C@@H]3C[C@@]4(CO[Si](C)(C)C)[C@@H](CC[C@@H]5[C@@H]4CC[C@]4(C)[C@@H](C6=CC(=O)OC6)CC[C@]54CO[Si](C)(C)C)C[C@H]3O[C@@H]2O1 (stereo partly drawn) | IC50 | 3.72 |

The measured IC50 associated with C[C@@H]1C[C@@]2(N=C(N)CS2)C2(O)O[C@@H]3C[C@@]4(C=O)[C@@H](CC[C@@H]5[C@@H]4CC[C@]4(C)[C@@H](C6=CC(=O)OC6)CC[C@]54CO)C[C@H]3O[C@@H]2O1 (stereo partly drawn) reads 0.034

Field IC50 (entry C[C@@H]1C[C@@]2(NCCS2)C2(O)O[C@@H]3C[C@@]4(CO)[C@@H](CC[C@@H]5[C@@H]4CC[C@]4(C)[C@@H](C6=CC(=O)OC6)CC[C@]54CO)C[C@H]3O[C@@H]2O1 (stereo partly drawn) ) reads 0.031
